Source: patent US20100292205A1

- system.tested: Recombinant human GSK3β (Homo sapiens, UniProt P49841)
- Construct: His-tag; made in house; host or cells: Sf9 insect cells / baculovirus
- Sequence (P49841 whole entry): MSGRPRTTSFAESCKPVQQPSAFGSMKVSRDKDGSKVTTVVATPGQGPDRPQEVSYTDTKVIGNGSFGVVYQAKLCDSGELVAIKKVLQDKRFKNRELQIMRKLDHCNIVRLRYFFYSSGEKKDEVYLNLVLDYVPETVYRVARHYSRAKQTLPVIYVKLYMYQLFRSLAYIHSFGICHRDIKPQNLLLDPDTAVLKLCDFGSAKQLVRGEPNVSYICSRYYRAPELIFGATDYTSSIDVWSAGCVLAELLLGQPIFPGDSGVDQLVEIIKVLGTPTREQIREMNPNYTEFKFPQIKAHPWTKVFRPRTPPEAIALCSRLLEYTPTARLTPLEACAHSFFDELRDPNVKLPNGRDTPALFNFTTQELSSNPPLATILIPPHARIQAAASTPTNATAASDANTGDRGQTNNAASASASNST
- test.description: GSK-3β (Glycogen Synthase Kinase) cell free enzyme assay
- Type: biochemical
- assay.conditions: cell free enzyme assay; Examples 222-234
pIC50: −log10 of the molar value.
measured.parameter: pIC50

- CCN(C[C@@H]1CCCN1C(=O)OC)c1nc(-c2ccncn2)cc(=O)n1C: 8.95
- CCN(C[C@H]1CCCN1C(=O)OC)c1nc(-c2ccncn2)cc(=O)n1C: 9.00
- CCOC(=O)N1CCC[C@@H]1CN(CC)c1nc(-c2ccncn2)cc(=O)n1C: 9.08
- CN(c1nc(-c2ccncn2)cc(=O)n1C)[C@@H]1CCCN(C(=O)C2CC2)C1: 8.77
- CCOC(=O)N1CCC[C@H]1CN(CC)c1nc(-c2ccncn2)cc(=O)n1C: 9.12
- CCOC(=O)N1CCCC(N(C)c2nc(-c3ccncn3)cc(=O)n2C)C1 (centres unmarked): 8.94
- COC(=O)N1CCC[C@@H](Nc2nc(-c3ccncn3)cc(=O)n2C)C1: 9.00
- Cn1c(N[C@@H]2CCCN(C(=O)OCc3ccncc3)C2)nc(-c2ccncn2)cc1=O: 8.30

----------
Item-by-item account of pIC50
- system.tested: Recombinant human GSK3β (Homo sapiens, UniProt P49841)
- Construct: His-tag; made in house; host or cells: Sf9 insect cells / baculovirus
- test.description: GSK-3β (Glycogen Synthase Kinase) cell free enzyme assay
- Type: biochemical
- assay.conditions: cell free enzyme assay; Examples 62-155
pIC50: −log10 of the molar value.
measured.parameter: pIC50

* Cc1cccc(C(=O)N2C[C@@H]3[C@H](C2)[C@H]3N(C)c2nc(-c3ccncc3F)cc(=O)n2C)c1 [Example 132] | 8.98
* Cn1c(NCC2CN(C(=O)Cc3ccccc3)C2)nc(-c2ccncc2)cc1=O [Example 95] | 5.86
* CCN(c1nc(-c2ccncc2)cc(=O)n1C)C1CCN(C(=O)Cc2ccccc2)CC1 [Example 92] | 6.98
* CN(c1nc(-c2ccncc2F)cc(=O)n1C)[C@H]1[C@@H]2CN(C(=O)c3ccc(F)cc3)C[C@@H]21 [Example 139] | 8.25
* CN(c1nc(-c2ccncc2F)cc(=O)n1C)C1[C@H]2CN(C(=O)C34CC[C@@](C)(C(=O)O3)C4(C)C)C[C@@H]12 (stereo partly drawn) [Example 134] | 7.18
* Cn1c(NC2CCCN(C(=O)c3ccccc3)CC2)nc(-c2ccncc2)cc1=O (stereo not drawn) [Example 63] | 7.91
* CN(c1nc(-c2ccncc2F)cc(=O)n1C)[C@H]1[C@@H]2CN(C(=O)c3ccc(F)c(Cl)c3)C[C@@H]21 [Example 124] | 8.34
* CN(c1nc(-c2ccncc2F)cc(=O)n1C)[C@H]1[C@@H]2CN(C(=O)c3ccccc3F)C[C@@H]21 [Example 118] | 8.95
* Cn1c(N[C@@H]2CN(C(=O)Cc3ccccc3)C[C@@H]2F)nc(-c2ccncc2)cc1=O [Example 87] | 6.55
* CCN(C[C@H]1CCCN1C(=O)Cc1ccccc1)c1nc(-c2ccncc2)cc(=O)n1C [Example 94] | 7.74
* Cn1c(NC[C@H]2CCCN2C(=O)c2ccccc2)nc(-c2ccncc2)cc1=O [Example 78] | 6.56
* Cn1c(N[C@H]2CN(C(=O)Cc3ccccc3)C[C@@H]2F)nc(-c2ccncc2)cc1=O [Example 83] | 7.41
* CCN(c1nc(-c2ccncc2)cc(=O)n1C)C1CCCN(C(=O)c2ccccc2)C1 (stereo not drawn) [Example 73] | 6.46
* Cn1c(N[C@@H]2CN(C(=O)c3ccccc3)C[C@@H]2F)nc(-c2ccncc2)cc1=O [Example 68] | 7.25
* COc1ccc(CC(=O)N2C[C@@H]3[C@H](C2)[C@H]3N(C)c2nc(-c3ccncc3F)cc(=O)n2C)cc1 [Example 109] | 8.39
* CCCCC(=O)N1C[C@@H]2[C@H](C1)[C@H]2N(C)c1nc(-c2ccncc2F)cc(=O)n1C [Example 128] | 7.79
* CN(c1nc(-c2ccncc2F)cc(=O)n1C)[C@H]1[C@@H]2CN(C(=O)c3cccc(F)c3F)C[C@@H]21 [Example 137] | 8.48
* CN(c1nc(-c2ccncc2F)cc(=O)n1C)[C@H]1[C@@H]2CN(C(=O)c3cc(Cl)sc3Cl)C[C@@H]21 [Example 141] | 8.98
* COC(=O)CCCC(=O)N1C[C@@H]2[C@H](C1)[C@H]2N(C)c1nc(-c2ccncc2F)cc(=O)n1C [Example 143] | 7.24
* CCC(C)C(=O)N1C[C@@H]2[C@H](C1)[C@H]2N(C)c1nc(-c2ccncc2F)cc(=O)n1C (stereo partly drawn) [Example 103] | 8.56
* CN(c1nc(-c2ccncc2F)cc(=O)n1C)[C@H]1[C@@H]2CN(C(=O)C(C)(C)C)C[C@@H]21 [Example 121] | 8.85
* Cn1c(NC[C@@H]2CCCN2C(=O)c2ccccc2)nc(-c2ccncc2)cc1=O [Example 75] | 6.74
* Cn1c(NC2CCN(C(=O)Cc3ccccc3)C2)nc(-c2ccncc2)cc1=O (stereo not drawn) [Example 81] | 6.95
* CN(c1nc(-c2ccncc2F)cc(=O)n1C)[C@H]1[C@@H]2CN(C(=O)c3cnn(C)c3Cl)C[C@@H]21 [Example 120] | 8.34
* CCN(c1nc(-c2ccncc2)cc(=O)n1C)C1CCCN(C(=O)Cc2ccccc2)C1 (stereo not drawn) [Example 91] | 6.83
* CC[C@@H](Oc1ccccc1)C(=O)N1C[C@@H]2[C@H](C1)[C@H]2N(C)c1nc(-c2ccncc2F)cc(=O)n1C [Example 145] | 7.88
* CN(c1nc(-c2ccncc2F)cc(=O)n1C)[C@H]1[C@@H]2CN(C(=O)c3c(F)cc(F)cc3F)C[C@@H]21 [Example 117] | 8.74
* CN(c1nc(-c2ccncc2F)cc(=O)n1C)[C@H]1[C@@H]2CN(C(=O)C3CCC3)C[C@@H]21 [Example 107] | 7.74
* CN(c1nc(-c2ccncc2F)cc(=O)n1C)[C@H]1[C@@H]2CN(C(=O)c3ccccc3C(F)(F)F)C[C@@H]21 [Example 98] | 8.36
* COc1ccc(C(=O)N2C[C@@H]3[C@H](C2)[C@H]3N(C)c2nc(-c3ccncc3F)cc(=O)n2C)c(OC)c1 [Example 151] | 8.91

----------
- system.tested: Recombinant human GSK3β (Homo sapiens)
- Construct: His-tag; made in house; host or cells: Sf9 insect cells / baculovirus
- test.description: GSK-3β (Glycogen Synthase Kinase) cell free enzyme assay
- Assay type: biochemical
- assay.conditions: 1 μM; Examples 157-199; read-out: Percent inhibition at 1 μM
Use fulfilled when the recorded inhibition at 1 µM is no lower than 90%; use not fulfilled when it is lower.

* CCN(C[C@H]1CCCN1S(=O)(=O)c1ccccc1)c1nc(-c2ccncc2)cc(=O)n1C [Example 189] | fulfilled
* CCN(c1nc(-c2ccncc2)cc(=O)n1C)C1CCCN(S(=O)(=O)c2ccccc2)CC1 (centres unmarked) [Example 186] | fulfilled
* Cn1c(NCC2CN(S(=O)(=O)c3ccccc3)C2)nc(-c2ccncc2)cc1=O [Example 190] | not fulfilled
* Cn1c(N[C@@H]2CN(S(=O)(=O)c3ccccc3)C[C@@H]2F)nc(-c2ccncc2)cc1=O [Example 184] | fulfilled
* Cn1c(N2CC[C@@H]3CN(S(=O)(=O)Cc4ccccc4)C[C@@H]32)nc(-c2ccncc2)cc1=O [Example 193] | not fulfilled
* Cn1c(N[C@H]2CN(S(C)(=O)=O)C[C@@H]2F)nc(-c2ccncc2)cc1=O [Example 158] | not fulfilled
* Cn1c(NC2CCCCN(S(=O)(=O)c3ccccc3)C2)nc(-c2ccncc2)cc1=O (centres unmarked) [Example 173] | not fulfilled

----------
- system.tested: Recombinant human GSK3β (Homo sapiens, UniProt P49841)
- Construct: His-tag; made in house; host or cells: Sf9 insect cells / baculovirus
- test.description: GSK-3β (Glycogen Synthase Kinase) cell free enzyme assay
- Type: biochemical
- assay.conditions: cell free enzyme assay; Examples 1-35
TRUE if IC50 is below 20 nM. FALSE if not; exact matches included in FALSE.

- CN(c1nc(-c2ccncc2)cc(=O)n1C)C1CCCN(C(=O)OC(C)(C)C)CC1 (centres unmarked): TRUE
- Cn1c(NC[C@H]2CCCN2C(=O)OC(C)(C)C)nc(-c2ccncc2)cc1=O: FALSE
- Cn1c(NC2CCCCN(C(=O)OC(C)(C)C)C2)nc(-c2ccncc2)cc1=O (centres unmarked): FALSE
- Cn1c(N2CCc3ccccc3C2Cc2ccccc2)nc(-c2ccncc2)cc1=O (centres unmarked): FALSE
- Cn1c(N2CCN(C(=O)OC(C)(C)C)[C@@H]3CCCC[C@H]32)nc(-c2ccncc2)cc1=O: FALSE
- Cn1c(N[C@H]2Cc3ccccc3NC2=O)nc(-c2ccncc2)cc1=O: FALSE
- Cn1c(N[C@@H]2CN(C(=O)OC(C)(C)C)C[C@@H]2F)nc(-c2ccncc2)cc1=O: FALSE
- CCN(c1nc(-c2ccncc2)cc(=O)n1C)C1CCN(C(=O)OC(C)(C)C)C1 (centres unmarked): TRUE
- Cn1c(NCC2CCN(C(=O)OC(C)(C)C)C2)nc(-c2ccncc2)cc1=O (centres unmarked): FALSE
- Cn1c(NCC2CCCN2C(=O)OC(C)(C)C)nc(-c2ccncc2)cc1=O (centres unmarked): FALSE
- Cn1c(N[C@H]2[C@@H]3CN(C(=O)OC(C)(C)C)C[C@@H]32)nc(-c2ccncc2)cc1=O [Example 2]: TRUE
- Cn1c(N2CC[C@@](O)(c3ccccc3)[C@H]3CCCC[C@H]32)nc(-c2ccncc2)cc1=O: TRUE
- Cn1c(NCCc2nc(-c3ccccc3)cs2)nc(-c2ccncc2)cc1=O: TRUE
- Cn1c(NC2CCCN(C(=O)OC(C)(C)C)C2)nc(-c2ccncc2)cc1=O (centres unmarked): FALSE
- CN(c1nc(-c2ccncc2)cc(=O)n1C)[C@H]1CC[C@H]2NCC[C@@]2(C)C1: FALSE
- Cn1c(N[C@H]2CN(C(=O)OC(C)(C)C)C[C@@H]2F)nc(-c2ccncc2)cc1=O: FALSE
- Cn1c(NCC2OCCc3ccccc32)nc(-c2ccncc2)cc1=O (centres unmarked): FALSE
